src = ChEMBL document CHEMBL2380284

- Study System: DNA-directed RNA polymerase subunit beta (Escherichia coli O127:H6 (strain E2348/69 / EPEC), UniProt B7UPE2, H526Y)
- Sequence (B7UPE2 whole entry H526Y): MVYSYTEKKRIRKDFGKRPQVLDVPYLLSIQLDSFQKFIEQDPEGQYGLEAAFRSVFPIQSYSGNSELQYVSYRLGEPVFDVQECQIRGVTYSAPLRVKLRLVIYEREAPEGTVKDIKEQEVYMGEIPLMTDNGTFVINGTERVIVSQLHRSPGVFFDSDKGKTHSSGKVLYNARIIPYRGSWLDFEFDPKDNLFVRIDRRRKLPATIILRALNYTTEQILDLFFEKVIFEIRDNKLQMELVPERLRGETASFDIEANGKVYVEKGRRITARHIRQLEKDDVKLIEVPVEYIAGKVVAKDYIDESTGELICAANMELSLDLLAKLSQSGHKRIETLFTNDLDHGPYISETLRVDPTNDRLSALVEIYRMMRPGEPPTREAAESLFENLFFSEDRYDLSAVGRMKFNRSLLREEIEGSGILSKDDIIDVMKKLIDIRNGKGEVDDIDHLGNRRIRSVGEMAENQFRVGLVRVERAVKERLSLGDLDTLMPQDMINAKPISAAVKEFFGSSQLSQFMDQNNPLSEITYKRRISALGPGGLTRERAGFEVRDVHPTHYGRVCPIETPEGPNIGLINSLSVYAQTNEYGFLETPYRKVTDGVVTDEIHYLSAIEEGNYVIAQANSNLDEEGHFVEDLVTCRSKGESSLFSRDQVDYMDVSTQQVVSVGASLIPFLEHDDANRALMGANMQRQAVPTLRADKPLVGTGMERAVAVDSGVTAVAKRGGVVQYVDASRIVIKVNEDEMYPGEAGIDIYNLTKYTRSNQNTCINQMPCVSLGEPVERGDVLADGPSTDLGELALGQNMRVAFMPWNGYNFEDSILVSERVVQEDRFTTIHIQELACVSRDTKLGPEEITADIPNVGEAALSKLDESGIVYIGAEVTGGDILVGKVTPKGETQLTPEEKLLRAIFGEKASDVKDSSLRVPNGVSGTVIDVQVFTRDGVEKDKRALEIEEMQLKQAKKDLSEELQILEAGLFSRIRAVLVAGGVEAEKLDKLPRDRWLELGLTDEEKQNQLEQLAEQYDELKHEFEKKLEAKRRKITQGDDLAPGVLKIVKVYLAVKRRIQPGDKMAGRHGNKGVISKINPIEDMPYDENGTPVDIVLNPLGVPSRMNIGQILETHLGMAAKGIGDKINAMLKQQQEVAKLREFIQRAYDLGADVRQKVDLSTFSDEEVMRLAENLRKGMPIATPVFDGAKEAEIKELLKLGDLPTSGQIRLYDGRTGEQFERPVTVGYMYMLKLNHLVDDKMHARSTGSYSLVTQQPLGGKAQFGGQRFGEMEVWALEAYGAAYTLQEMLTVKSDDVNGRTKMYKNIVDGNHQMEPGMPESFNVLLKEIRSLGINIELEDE
- Test Protocol: Inhibition of rifamycin-resistant Escherichia coli RNA polymerase H526Y mutant after 10 mins by rolling circle transcription assay in presence of DNA nanocircle template NC45
Let's look at some compounds and their measured pIC50.
Note: pIC50 values are expressed as the negative base-10 logarithm of concentration in M.

Reference set (3 entries):
CO[C@H]1/C=C/O[C@@]2(C)Oc3c(C)c(O)c4c(=O)c(c5oc6cccc(OCCCCN7CCN(C(=O)Cn8ccnc8)CC7)c6nc-5c4c3C2=O)NC(=O)/C(C)=C\C=C\[C@H](C)[C@H](O)[C@@H](C)[C@@H](O)[C@@H](C)[C@H](OC(C)=O)[C@@H]1C	2.80
CCN(CC)CCOc1cccc2oc3c4c(=O)c5c(O)c(C)c6c(c5c-3nc12)C(=O)[C@@](C)(O/C=C/[C@H](OC)[C@@H](C)[C@@H](OC(C)=O)[C@H](C)[C@H](O)[C@H](C)[C@@H](O)[C@@H](C)/C=C/C=C(/C)C(=O)N4)O6	2.94
CO[C@H]1/C=C/O[C@@]2(C)Oc3c(C)c(O)c4c(O)c(c(/C=N/N5CCN(C)CC5)c(O)c4c3C2=O)NC(=O)/C(C)=C\C=C\[C@H](C)[C@H](O)[C@@H](C)[C@@H](O)[C@@H](C)[C@H](OC(C)=O)[C@@H]1C [RIFAMPIN]	2.95

Report pIC50 for CO[C@H]1/C=C/O[C@@]2(C)Oc3c(C)c(O)c4c(=O)c(c5oc6cc(N7CCN(CC(C)C)CC7)cc(O)c6nc-5c4c3C2=O)NC(=O)/C(C)=C\C=C\[C@H](C)[C@H](O)[C@@H](C)[C@@H](O)[C@@H](C)[C@H](OC(C)=O)[C@@H]1C [RIFALAZIL]
3.52

* * *

- Study System: DNA-directed RNA polymerase subunit beta (Escherichia coli O127:H6 (strain E2348/69 / EPEC), UniProt B7UPE2, D516V)
- Sequence (B7UPE2 whole entry D516V): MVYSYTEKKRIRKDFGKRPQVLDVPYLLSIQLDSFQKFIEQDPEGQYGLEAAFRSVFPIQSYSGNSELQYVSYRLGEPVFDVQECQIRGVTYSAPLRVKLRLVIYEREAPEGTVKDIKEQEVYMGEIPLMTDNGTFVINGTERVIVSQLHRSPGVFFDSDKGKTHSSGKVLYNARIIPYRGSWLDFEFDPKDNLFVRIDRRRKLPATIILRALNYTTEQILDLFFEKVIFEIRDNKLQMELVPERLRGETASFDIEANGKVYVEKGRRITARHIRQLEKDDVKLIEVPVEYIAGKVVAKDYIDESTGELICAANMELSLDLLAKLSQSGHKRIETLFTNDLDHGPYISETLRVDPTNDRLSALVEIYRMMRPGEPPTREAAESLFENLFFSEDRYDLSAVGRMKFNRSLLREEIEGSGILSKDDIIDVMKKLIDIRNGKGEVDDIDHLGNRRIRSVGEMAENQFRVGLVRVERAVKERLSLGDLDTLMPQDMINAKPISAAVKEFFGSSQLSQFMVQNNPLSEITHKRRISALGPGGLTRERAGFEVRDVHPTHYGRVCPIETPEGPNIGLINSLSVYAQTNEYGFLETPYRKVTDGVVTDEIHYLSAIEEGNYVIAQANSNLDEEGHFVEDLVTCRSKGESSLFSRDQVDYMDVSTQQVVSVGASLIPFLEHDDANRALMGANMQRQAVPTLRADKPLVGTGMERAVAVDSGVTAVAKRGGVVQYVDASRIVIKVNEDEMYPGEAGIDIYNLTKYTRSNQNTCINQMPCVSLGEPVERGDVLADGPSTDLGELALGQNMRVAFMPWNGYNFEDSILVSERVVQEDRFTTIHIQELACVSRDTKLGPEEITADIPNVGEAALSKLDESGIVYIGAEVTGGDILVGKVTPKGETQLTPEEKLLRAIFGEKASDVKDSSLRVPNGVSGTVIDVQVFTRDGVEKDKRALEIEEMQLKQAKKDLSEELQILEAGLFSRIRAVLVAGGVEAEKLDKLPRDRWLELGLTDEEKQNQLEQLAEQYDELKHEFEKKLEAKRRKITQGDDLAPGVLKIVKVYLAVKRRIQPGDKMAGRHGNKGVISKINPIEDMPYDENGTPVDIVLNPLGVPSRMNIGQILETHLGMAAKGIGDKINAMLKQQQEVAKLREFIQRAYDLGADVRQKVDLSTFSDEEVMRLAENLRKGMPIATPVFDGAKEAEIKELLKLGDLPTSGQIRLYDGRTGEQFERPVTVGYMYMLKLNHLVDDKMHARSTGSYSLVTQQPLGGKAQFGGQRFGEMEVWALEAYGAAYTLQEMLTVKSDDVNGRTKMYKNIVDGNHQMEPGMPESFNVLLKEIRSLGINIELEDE
- Test Protocol: Inhibition of rifamycin-resistant Escherichia coli RNA polymerase D516V mutant after 10 mins by rolling circle transcription assay in presence of DNA nanocircle template NC45
Measure Name: pIC50
Note: pIC50 values are expressed as the negative base-10 logarithm of concentration in M.

CO[C@H]1/C=C/O[C@@]2(C)Oc3c(C)c(O)c4c(=O)c(c5oc6cccc(OCCCCN7CCN(CCn8ccnc8)CC7)c6nc-5c4c3C2=O)NC(=O)/C(C)=C\C=C\[C@H](C)[C@H](O)[C@@H](C)[C@@H](O)[C@@H](C)[C@H](OC(C)=O)[C@@H]1C	5.70

Continue with the compound presented below.
Report pIC50 for "CCN(CC)CCOc1cccc2oc3c4c(=O)c5c(O)c(C)c6c(c5c-3nc12)C(=O)[C@@](C)(O/C=C/[C@H](OC)[C@@H](C)[C@@H](OC(C)=O)[C@H](C)[C@H](O)[C@H](C)[C@@H](O)[C@@H](C)/C=C/C=C(/C)C(=O)N4)O6"
4.46

* * *

- Study System: DNA-directed RNA polymerase subunit beta (Escherichia coli O127:H6 (strain E2348/69 / EPEC), UniProt B7UPE2, D516V)
- Test Protocol: Inhibition of rifamycin-resistant Escherichia coli RNA polymerase D516V mutant after 10 mins by rolling circle transcription assay in presence of DNA nanocircle template NC45
Measure Name: IC50 (µM)
Give your result in µM as a bare value.

Reference set (2 entries):
CO[C@H]1/C=C/O[C@@]2(C)Oc3c(C)c(O)c4c(O)c(c(/C=N/N5CCN(C)CC5)c(O)c4c3C2=O)NC(=O)/C(C)=C\C=C\[C@H](C)[C@H](O)[C@@H](C)[C@@H](O)[C@@H](C)[C@H](OC(C)=O)[C@@H]1C	233
CO[C@H]1/C=C/O[C@@]2(C)Oc3c(C)c(O)c4c(=O)c(c5oc6cccc(OCCCCN7CCN(C(=O)Cn8ccnc8)CC7)c6nc-5c4c3C2=O)NC(=O)/C(C)=C\C=C\[C@H](C)[C@H](O)[C@@H](C)[C@@H](O)[C@@H](C)[C@H](OC(C)=O)[C@@H]1C	41

Continue with the molecule presented below.
Report IC50 for "CO[C@H]1/C=C/O[C@@]2(C)Oc3c(C)c(O)c4c(=O)c(c5oc6cc(N7CCN(CC(C)C)CC7)cc(O)c6nc-5c4c3C2=O)NC(=O)/C(C)=C\C=C\[C@H](C)[C@H](O)[C@@H](C)[C@@H](O)[C@@H](C)[C@H](OC(C)=O)[C@@H]1C"
204

* * *

- Test Protocol: Inhibition of wild type Escherichia coli RNA polymerase after 10 mins by rolling circle transcription assay in presence of DNA nanocircle template NC45
Measure Name: IC50 (nM)
Give your result in nM as a bare value.

CCN(CC)CCOc1cccc2oc3c4c(=O)c5c(O)c(C)c6c(c5c-3nc12)C(=O)[C@@](C)(O/C=C/[C@H](OC)[C@@H](C)[C@@H](OC(C)=O)[C@H](C)[C@H](O)[C@H](C)[C@@H](O)[C@@H](C)/C=C/C=C(/C)C(=O)N4)O6	57

Continue with the compound presented below.
Report IC50 for "CO[C@H]1/C=C/O[C@@]2(C)Oc3c(C)c(O)c4c(=O)c(c5oc6cccc(OCCCCN7CCN(C(=O)Cn8ccnc8)CC7)c6nc-5c4c3C2=O)NC(=O)/C(C)=C\C=C\[C@H](C)[C@H](O)[C@@H](C)[C@@H](O)[C@@H](C)[C@H](OC(C)=O)[C@@H]1C"
21

* * *

Let's look at some molecules and their measured IC50.
- Test Protocol: Inhibition of wild type Escherichia coli RNA polymerase after 10 mins by rolling circle transcription assay in presence of DNA nanocircle template NC45
Give your result in nM as a bare value.

CO[C@H]1/C=C/O[C@@]2(C)Oc3c(C)c(O)c4c(O)c(c(/C=N/N5CCN(C)CC5)c(O)c4c3C2=O)NC(=O)/C(C)=C\C=C\[C@H](C)[C@H](O)[C@@H](C)[C@@H](O)[C@@H](C)[C@H](OC(C)=O)[C@@H]1C [RIFAMPIN]	12

Continue with the molecule presented below.
Report IC50 for "CO[C@H]1/C=C/O[C@@]2(C)Oc3c(C)c(O)c4c(=O)c(c5oc6cccc(OCCCCN7CCN(CCn8ccnc8)CC7)c6nc-5c4c3C2=O)NC(=O)/C(C)=C\C=C\[C@H](C)[C@H](O)[C@@H](C)[C@@H](O)[C@@H](C)[C@H](OC(C)=O)[C@@H]1C"
24
